- Assay Text: Solubility screening of veldoreotide acetate (10 mg, incremental volumes of medium, USP definition)
- Format: physicochemical
- Condition Set: Propylene glycol, 10 ml Slightly soluble (0.001 g/ml; 1 mg/ml), 10 mg in Propylene glycol
Readout Label: solubility

Entry C[C@@H](O)[C@@H]1NC(=O)[C@H](CCCCN)NC(=O)[C@@H](Cc2c[nH]c3ccccc23)NC(=O)[C@H](Cc2c[nH]c3ccccc23)NC(=O)[C@H](Cc2ccccc2)NC(=O)CCCNC(=O)CCCN(CC(N)=O)C(=O)[C@H](Cc2ccccc2)NC1=O [Veldoreotide Acetate] has what solubility? > 1000 µg/mL

###

- Assay Text: Solubility screening of veldoreotide acetate (10 mg, incremental volumes of medium, USP definition)
- Type: physicochemical
- Condition Set: Acetate saline 100 mM, Mannitol 250 mM, pH 4.3, 0.1 ml Freely soluble (0.1 g/ml), 10 mg in Acetate saline 100 mM, Mannitol 250 mM (pH 4.3)
Readout Label: solubility

Value lookup for solubility; key = C[C@@H](O)[C@@H]1NC(=O)[C@H](CCCCN)NC(=O)[C@@H](Cc2c[nH]c3ccccc23)NC(=O)[C@H](Cc2c[nH]c3ccccc23)NC(=O)[C@H](Cc2ccccc2)NC(=O)CCCNC(=O)CCCN(CC(N)=O)C(=O)[C@H](Cc2ccccc2)NC1=O [Veldoreotide Acetate] < 100 mg/mL
